The origin of these recorded values is patent US8518997B2.

Molecular target: PPAR delta (Homo sapiens)
Sequence (Q03181 171-441 limits assumed): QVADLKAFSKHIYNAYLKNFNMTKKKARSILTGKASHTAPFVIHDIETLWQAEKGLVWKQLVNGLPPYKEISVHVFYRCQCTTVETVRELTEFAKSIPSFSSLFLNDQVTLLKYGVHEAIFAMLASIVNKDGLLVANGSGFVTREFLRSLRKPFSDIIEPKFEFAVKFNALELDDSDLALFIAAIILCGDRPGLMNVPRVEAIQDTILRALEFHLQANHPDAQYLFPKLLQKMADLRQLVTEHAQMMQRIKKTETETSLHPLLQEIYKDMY
Test: Transfection assay for PPAR receptors (PPAR-Gal4 / Gal4-Luciferase reporter in HEK293 cells)
Assay type: cell-based
Conditions: HEK293 cells co-transfected with PPAR-Gal4 (δ) receptor and Gal4-Luciferase reporter, 24 hours; multiple EC50's = multiple measurements; Table 2
Reported values of pEC50 for individual entries
// pEC50 here means minus log10 of the molar concentration (mol/L)

IN: Quick check: pEC50 of Cc1cc(SC[C@H](O)COc2ccc(C(F)(F)F)cc2)ccc1OCC(=O)O ?
OUT: 7.36

IN: Quick check: pEC50 of COCO[C@@H](COc1ccc(C(F)(F)F)cc1)CSc1ccc(OCC(=O)O)c(C)c1 ?
OUT: 7.15

IN: Quick check: pEC50 of CCOC(CC(COc1ccc(C(F)(F)F)cc1)CSc1ccc(OCC(=O)O)c(C)c1)OCC (centres unmarked) ?
OUT: 7.28

IN: Quick check: pEC50 of CCOC(COc1ccc(C(F)(F)F)cc1)CSc1ccc(CC(=O)O)cc1Cl (centres unmarked) ?
OUT: 7.95
